Hi there, I'd appreciate the recorded dose excreted at 24 h for every entry that follows.
- method: Drug excretion in Sprague-Dawley rat bile assessed as unmetabolized form at 10 mg/kg, po after 24 hrs by HPLC
- Format: ADME, organism-based
- cond: read-out: Drug excretion

In: Give me measured dose excreted at 24 h, please, for this molecule: CNC1CN(c2c(F)cc3c(=O)c(C(=O)O)cn(-c4nc(N)c(F)cc4F)c3c2C)C1
Out: 16%

In: Give me measured dose excreted at 24 h, please, for this molecule: Cc1c(N2CC(N)C2)c(F)cc2c(=O)c(C(=O)O)cn(-c3nc(N)c(F)cc3F)c12
Out: 4.2%

In: Give me measured dose excreted at 24 h, please, for this molecule: CCNC1CN(c2c(F)cc3c(=O)c(C(=O)O)cn(-c4nc(N)c(F)cc4F)c3c2C)C1
Out: 49%

In: Give me measured dose excreted at 24 h, please, for this molecule: CCCNC1CN(c2c(F)cc3c(=O)c(C(=O)O)cn(-c4nc(N)c(F)cc4F)c3c2C)C1
Out: 74%

In: Give me measured dose excreted at 24 h, please, for this molecule: Cc1c(N2CC(NC(C)C)C2)c(F)cc2c(=O)c(C(=O)O)cn(-c3nc(N)c(F)cc3F)c12
Out: 68%

----------
Hi there, I'd appreciate the recorded MIC for every entry that follows.
- Tested on: Pseudomonas aeruginosa
- method: Antibacterial activity against Pseudomonas aeruginosa 15846 assessed as growth inhibition at 128 to 0.002 mg/L incubated for 18 hrs at 37 degC by agar dilution method
- Format: functional
- cond: Pseudomonas aeruginosa, 15846, 18 h
Answer in µg/mL, number only, no unit symbol.

In: Give me measured MIC, please, for this compound: Cc1c(N2CC(NC(C)(C)C)C2)c(F)cc2c(=O)c(C(=O)O)cn(-c3nc(N)c(F)cc3F)c12
Out: 0.57

In: Give me measured MIC, please, for this compound: CNC1CN(c2c(F)cc3c(=O)c(C(=O)O)cn(-c4nc(N)c(F)cc4F)c3c2C)C1
Out: 0.077

In: Give me measured MIC, please, for this compound: Cc1c(N2CC(N)C2)c(F)cc2c(=O)c(C(=O)O)cn(-c3nc(N)c(F)cc3F)c12
Out: 0.061

In: Give me measured MIC, please, for this compound: CCNC1CN(c2c(F)cc3c(=O)c(C(=O)O)cn(-c4nc(N)c(F)cc4F)c3c2C)C1
Out: 0.12

In: Give me measured MIC, please, for this compound: Cc1c(N2CC(NC(C)C)C2)c(F)cc2c(=O)c(C(=O)O)cn(-c3nc(N)c(F)cc3F)c12
Out: 0.17

In: Give me measured MIC, please, for this compound: CCCNC1CN(c2c(F)cc3c(=O)c(C(=O)O)cn(-c4nc(N)c(F)cc4F)c3c2C)C1
Out: 0.21

----------
Hi there, I'd appreciate the recorded MIC for every entry that follows.
- Tested on: Escherichia coli
- method: Antibacterial activity against Escherichia coli 177 assessed as growth inhibition at 128 to 0.002 mg/L incubated for 18 hrs at 37 degC by agar dilution method
- Format: functional
- cond: Escherichia coli, 177, 18 h
Answer in ng/mL, number only, no unit symbol.

In: Give me measured MIC, please, for this molecule: Cc1c(N2CC(NC(C)(C)C)C2)c(F)cc2c(=O)c(C(=O)O)cn(-c3nc(N)c(F)cc3F)c12
Out: 38

In: Give me measured MIC, please, for this molecule: CNC1CN(c2c(F)cc3c(=O)c(C(=O)O)cn(-c4nc(N)c(F)cc4F)c3c2C)C1
Out: 6

In: Give me measured MIC, please, for this molecule: CCNC1CN(c2c(F)cc3c(=O)c(C(=O)O)cn(-c4nc(N)c(F)cc4F)c3c2C)C1
Out: 6
